Sourced from ChEMBL document CHEMBL2380224

For each record, write down the corresponding solubility thermodynamic at 18 h, 500 µM.
Experiment: Thermodynamic solubility of the compound in pION buffer at 500 uM after 18 hrs at pH 4.0 by UV-spectrophotometric analysis
Type: physicochemical
Settings: read-out: Therm_solubility
API: value field is a number in µg/mL; no unit string.

What does the record list as solubility thermodynamic at 18 h, 500 µM for Cc1cc(=O)[nH]c2cc(-c3ccccc3)ccc12 ?
0.65

What solubility thermodynamic at 18 h, 500 µM value was documented for this compound, Cc1cc(=O)[nH]c2cc(-c3ccc(C(=O)NCCN4CCOCC4)cc3Cl)ccc12 ?
42.6

Given the compound Cc1cc(=O)[nH]c2cc(-c3ccc(C(=O)O)cc3Cl)ccc12 , what is its reported solubility thermodynamic at 18 h, 500 µM?
4.3

* * *

Molecular target: Poly [ADP-ribose] polymerase tankyrase-2 (Homo sapiens)
Sequence (whole entry): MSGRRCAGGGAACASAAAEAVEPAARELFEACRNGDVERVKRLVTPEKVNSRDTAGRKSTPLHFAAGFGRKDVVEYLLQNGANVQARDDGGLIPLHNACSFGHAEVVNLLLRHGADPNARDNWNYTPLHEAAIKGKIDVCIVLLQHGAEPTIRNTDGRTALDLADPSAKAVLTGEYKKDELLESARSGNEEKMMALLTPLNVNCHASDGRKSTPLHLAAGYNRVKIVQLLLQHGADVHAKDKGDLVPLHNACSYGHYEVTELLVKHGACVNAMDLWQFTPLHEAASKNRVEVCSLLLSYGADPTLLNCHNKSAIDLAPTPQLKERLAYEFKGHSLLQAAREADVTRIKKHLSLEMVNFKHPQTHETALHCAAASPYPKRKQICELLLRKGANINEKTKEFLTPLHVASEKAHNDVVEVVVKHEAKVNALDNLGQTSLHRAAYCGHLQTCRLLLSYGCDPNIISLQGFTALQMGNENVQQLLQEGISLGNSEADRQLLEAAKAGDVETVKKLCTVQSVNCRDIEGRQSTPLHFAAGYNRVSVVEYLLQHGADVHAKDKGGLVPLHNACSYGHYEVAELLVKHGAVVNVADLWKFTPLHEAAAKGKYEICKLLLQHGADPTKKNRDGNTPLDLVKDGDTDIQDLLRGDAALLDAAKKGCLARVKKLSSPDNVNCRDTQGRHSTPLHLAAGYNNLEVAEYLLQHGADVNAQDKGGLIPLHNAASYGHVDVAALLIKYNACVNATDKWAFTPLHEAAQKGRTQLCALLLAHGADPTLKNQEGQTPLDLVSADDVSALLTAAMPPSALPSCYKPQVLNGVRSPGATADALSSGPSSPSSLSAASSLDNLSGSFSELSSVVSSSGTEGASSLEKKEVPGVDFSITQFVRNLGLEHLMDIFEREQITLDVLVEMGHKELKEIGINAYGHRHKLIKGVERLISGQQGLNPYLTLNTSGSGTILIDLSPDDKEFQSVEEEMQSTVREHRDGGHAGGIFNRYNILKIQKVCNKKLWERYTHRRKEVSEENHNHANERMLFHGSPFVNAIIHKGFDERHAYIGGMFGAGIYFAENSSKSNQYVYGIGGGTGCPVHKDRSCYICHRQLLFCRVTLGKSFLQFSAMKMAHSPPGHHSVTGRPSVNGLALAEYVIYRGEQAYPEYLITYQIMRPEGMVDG
Assay: Binding affinity to TNKS2 PARP domain (947 to 1162) (unknown origin) expressed in Escherichia coli BL21(DE3) assessed as thermal stabilization at 125 uM by differential scanning flourimetric analysis
readoutName: ΔTm (°C)
Provide only the numeric value, understood in °C.

Need ΔTm, item Cc1cc(=O)[nH]c2ccc(-c3ccccc3)cc12
0.6

Need ΔTm of Cc1cc(=O)[nH]c2cc(-c3ccc(F)cc3)ccc12 , thanks.
3.1

// returns reported ΔTm for input Cc1cc(=O)[nH]c2cc(-c3cccc(F)c3)ccc12
4.4

Could you share which ΔTm value was measured for Cc1cc(=O)[nH]c2cc(-c3ccc(N)cc3Cl)ccc12 ?
9.4

Data request, read-out ΔTm, for COc1ccccc1-c1ccc2c(C)cc(=O)[nH]c2c1
1.5

Can you look up the measured ΔTm of COCCNC(=O)c1ccc(-c2ccc3c(C)cc(=O)[nH]c3c2)c(Cl)c1 for me?
10.1

Request the reported ΔTm associated with Cc1cc(=O)[nH]c2cc(-c3ccccc3F)ccc12
5.1

Requested field: ΔTm. Item: Cc1cc(=O)[nH]c2cc(-c3ccc(C(=O)O)cc3Cl)ccc12
7.4

Bench note: what ΔTm did Cc1cc(=O)[nH]c2cc(-c3ccccc3Cl)ccc12 show?
6.3

Query (molecule): Cc1cc(=O)[nH]c2cc(-c3ccccc3)ccc12 ; field requested: ΔTm
3.2

# input molecule: Cc1cc(=O)[nH]c2cc(-c3ccc(C(=O)NCCN4CCOCC4)cc3Cl)ccc12 ; wanted: its ΔTm
9.9

* * *

Target: Protein mono-ADP-ribosyltransferase PARP6 (Homo sapiens, UniProt Q2NL67)
Sequence (Q2NL67 whole entry): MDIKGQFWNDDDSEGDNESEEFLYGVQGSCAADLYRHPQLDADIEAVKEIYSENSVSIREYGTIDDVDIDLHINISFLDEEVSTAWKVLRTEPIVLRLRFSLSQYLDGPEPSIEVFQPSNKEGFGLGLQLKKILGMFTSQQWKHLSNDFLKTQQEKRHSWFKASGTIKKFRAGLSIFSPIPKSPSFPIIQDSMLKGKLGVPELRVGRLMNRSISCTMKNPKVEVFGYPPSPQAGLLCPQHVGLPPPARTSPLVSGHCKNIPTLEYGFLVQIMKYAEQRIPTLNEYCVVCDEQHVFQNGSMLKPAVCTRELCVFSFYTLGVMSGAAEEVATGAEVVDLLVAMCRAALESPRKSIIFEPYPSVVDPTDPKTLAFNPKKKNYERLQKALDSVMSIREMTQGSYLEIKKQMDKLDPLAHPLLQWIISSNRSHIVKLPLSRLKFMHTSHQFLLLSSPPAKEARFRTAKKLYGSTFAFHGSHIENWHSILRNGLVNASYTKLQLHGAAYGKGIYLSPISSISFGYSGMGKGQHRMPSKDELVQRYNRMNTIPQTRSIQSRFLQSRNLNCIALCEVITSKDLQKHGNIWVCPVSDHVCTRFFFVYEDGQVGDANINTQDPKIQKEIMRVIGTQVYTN
Assay: Inhibition of PARP6 (unknown origin)
pIC50: −log10 of the molar value.
readoutName: pIC50

Fill in: pIC50 of Cc1cc(=O)[nH]c2cc(-c3ccccc3F)ccc12 is ___
< 5.00

* * *

Molecular target: Poly [ADP-ribose] polymerase 1 (Homo sapiens)
Sequence (P09874 whole entry): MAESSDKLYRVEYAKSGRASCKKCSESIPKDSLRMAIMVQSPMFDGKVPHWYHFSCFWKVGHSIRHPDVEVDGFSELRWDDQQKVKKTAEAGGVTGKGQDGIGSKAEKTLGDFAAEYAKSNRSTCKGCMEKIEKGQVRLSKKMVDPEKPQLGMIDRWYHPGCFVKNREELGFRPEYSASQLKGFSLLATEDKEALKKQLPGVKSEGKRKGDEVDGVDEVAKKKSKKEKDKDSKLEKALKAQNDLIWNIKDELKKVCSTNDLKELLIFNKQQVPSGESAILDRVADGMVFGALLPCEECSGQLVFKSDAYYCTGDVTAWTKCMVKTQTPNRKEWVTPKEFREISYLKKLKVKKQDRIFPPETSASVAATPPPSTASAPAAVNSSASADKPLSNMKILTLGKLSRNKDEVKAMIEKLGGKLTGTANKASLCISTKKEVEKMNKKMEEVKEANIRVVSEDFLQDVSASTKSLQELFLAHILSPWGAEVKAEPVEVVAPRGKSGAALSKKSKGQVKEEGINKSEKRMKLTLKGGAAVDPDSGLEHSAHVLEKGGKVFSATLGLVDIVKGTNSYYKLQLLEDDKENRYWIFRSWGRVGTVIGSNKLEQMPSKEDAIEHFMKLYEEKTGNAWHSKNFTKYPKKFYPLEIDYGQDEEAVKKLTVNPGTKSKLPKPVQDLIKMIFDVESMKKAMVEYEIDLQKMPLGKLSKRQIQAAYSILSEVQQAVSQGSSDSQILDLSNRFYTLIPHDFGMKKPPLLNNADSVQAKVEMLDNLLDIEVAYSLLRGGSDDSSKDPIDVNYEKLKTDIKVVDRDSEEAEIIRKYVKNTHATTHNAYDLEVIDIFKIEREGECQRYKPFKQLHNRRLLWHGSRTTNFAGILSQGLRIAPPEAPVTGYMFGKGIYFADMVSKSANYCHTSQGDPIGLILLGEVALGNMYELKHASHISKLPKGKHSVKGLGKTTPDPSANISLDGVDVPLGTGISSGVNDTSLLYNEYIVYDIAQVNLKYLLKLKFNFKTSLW
pIC50: −log10 of the molar value.
readoutName: pIC50

// lookup pIC50 | system=Poly [ADP-ribose] polymerase 1 (Homo sapiens) | key= Cc1cc(=O)[nH]c2cc(-c3ccccc3F)ccc12
< 5.00
